Each recorded value in this set is attributed to ChEMBL document CHEMBL1136016.

- TESTED SYSTEM: Adenosine receptor A3 (Homo sapiens, UniProt P0DMS8)
- Sequence (P0DMS8 whole entry): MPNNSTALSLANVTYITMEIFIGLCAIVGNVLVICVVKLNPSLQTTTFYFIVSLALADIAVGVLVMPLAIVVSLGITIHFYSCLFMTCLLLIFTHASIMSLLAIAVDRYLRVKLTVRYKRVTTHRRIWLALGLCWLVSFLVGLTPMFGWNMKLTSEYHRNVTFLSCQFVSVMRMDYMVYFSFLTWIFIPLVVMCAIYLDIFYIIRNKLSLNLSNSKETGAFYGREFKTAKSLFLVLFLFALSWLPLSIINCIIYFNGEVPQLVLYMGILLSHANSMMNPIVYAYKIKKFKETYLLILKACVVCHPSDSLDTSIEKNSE
- PROCEDURE DETAILS: Displacement of [3H]MRE3008-F20 binding at human Adenosine A3 receptor expressed in HEK cells; range 0.77-0.96
- Type: cell-based, HEK293
ASSAY ENDPOINT: Ki (nM)
Please respond with the number in nM and leave the unit unwritten.

Ask: What does the data say about its Ki? Entry: CCn1cc2c(nc(NC(=O)Nc3cccc(OC)c3)n3nc(-c4ccco4)nc23)n1
Reply: 0.86
